Origin of the recorded values: patent US20250179059A1

Assign pIC50 to each entry below.
# target.of.assay: human BRD4 bromodomain II (Homo sapiens)
# Construct: human BRD4 bromodomain II [based on Genbank NM_058243, residues 349-460]; host or cells: E. coli
# assay.comment: Bromodomain binding assay (AlphaScreen), BRD4 BDII
# condition.summary: AlphaScreen assay, Table C2; read-out: BRD4 BDII IC50
pIC50: −log10 of the molar value.

Before answering, review these 3 worked examples.
{"columns": ["compound", "target.of.assay", "recorded.measurement"],
 "data": [
  ["CC(C)N1CCN(c2cc(-c3cc(F)cc(-c4ccc(-n5ccn(C)c5=O)c(Cl)c4)c3O)cc3c2cnn3C)CC1 [Example 672]", "human BRD4 bromodomain II (Homo sapiens)", "9.00 to 11.00"],
  ["CC(=O)Nc1ccc(-c2cccc(-c3cc(OC4CCC(O)CC4)nc(N4CCNCC4)c3)c2O)cc1F (stereo not shown) [Example 361]", "human BRD4 bromodomain II (Homo sapiens)", "7.00 to 8.00"],
  ["Cn1ccn(-c2ccc(-c3cc(F)cc(-c4ccnc(N5CCN6CCCC6C5)c4)c3O)cc2Cl)c1=O (stereo not shown) [Example 625]", "human BRD4 bromodomain II (Homo sapiens)", "9.00 to 11.00"]
]}

Please report pIC50 for every entry that follows.
1. CC(=O)Nc1ccc(-c2cccc(-c3cccc(N4CCNC(=O)C4)c3)c2O)cc1F [Example 254]
2. Cn1ccn(-c2ccc(-c3cc(F)cc(-c4ccnc(N5CCN(C6CCOC6)CC5)c4)c3O)cc2Cl)c1=O (stereo not shown) [Example 618]
3. CC(=O)NC(C)(C)C#Cc1cccc(-c2cc(F)cc(-c3ccc(-n4ccn(C)c4=O)c(Cl)c3)c2O)c1 [Example 795]

Result:
1: 7.00 to 8.00; 2: 9.00 to 11.00; 3: < 7.00

Problem: Determine its reported pIC50: CC(=O)Nc1ccc(-c2cccc(-c3cc(N4CCNCC4)no3)c2O)cc1C#N [Example 64, 2,2,2-trifluoroacetate]
Result: 7.00 to 8.00
